Values from ChEMBL document CHEMBL3885861

organism: Rattus norvegicus; test: Open TG-GATES - Regimen: Single; type: toxicity, organism-based, Sprague-Dawley; set-up: regimen Single, gender Male, age 6 weeks; conditions: in vivo, po, 100 mg/kg, 3 h, tissue Plasma, route gavage, dose level High
test.readout: IP (mg/dL)

CN(C)CCCN1c2ccccc2CCc2ccccc21 ... 10
CN(C)CCN(Cc1cccs1)c1ccccn1 ... 8.3
CN(C)CCCN1c2ccccc2CCc2ccc(Cl)cc21 ... 9.6
CC1=C(/C=C/C(C)=C/C=C/C(C)=C/CO)C(C)(C)CCC1 ... 9.4

---

species: Rattus norvegicus; assay: Open TG-GATES - Regimen: Single; assay type: toxicity, organism-based, Sprague-Dawley; parameters: regimen Single, gender Male, age 6 weeks; settings: in vivo, po, 0 mg/kg, 6 h, tissue Blood, route gavage, dose level Control
Measured PT values are reported for all entries that follow.
test.readout: PT (s)

CCOc1ccc(NC(=O)CC(C)O)cc1 (stereo not given) [BUCETIN] ... 13.4
CC1=C(/C=C/C(C)=C/C=C/C(C)=C/CO)C(C)(C)CCC1 [RETINOL] ... 15.7
NC(N)=Nc1nc(CSCCC(N)=NS(N)(=O)=O)cs1 [FAMOTIDINE] ... 12.4
CC/C(=C(\c1ccccc1)c1ccc(OCCN(C)C)cc1)c1ccccc1 [TAMOXIFEN] ... 12.1
COc1cc2c(c(OC)c1OC)-c1ccc(OC)c(=O)cc1[C@@H](NC(C)=O)CC2 [COLCHICINE] ... 12
Cc1ccc(C)c(OCCCC(C)(C)C(=O)O)c1 [GEMFIBROZIL] ... 12.1
COC1=CC(=O)C[C@@H](C)[C@]12Oc1c(Cl)c(OC)cc(OC)c1C2=O [GRISEOFULVIN] ... 12.7
CN(C)CCCN1c2ccccc2CCc2ccc(Cl)cc21 [CLOMIPRAMINE] ... 13.9
COc1ccc2[nH]c([S+]([O-])Cc3ncc(C)c(OC)c3C)nc2c1 (stereo not given) [OMEPRAZOLE] ... 12.6
CN(C)CCN(Cc1cccs1)c1ccccn1 ... 17.2

---

organism: Rattus norvegicus; assay: Open TG-GATES - Regimen: Single; type: toxicity, organism-based, Sprague-Dawley; parameters: regimen Single, gender Male, age 6 weeks; settings: in vivo, po, 100 mg/kg, 9 h, tissue Plasma, route gavage, dose level Low
Measured TP values are reported for all entries that follow.
test.readout: TP (g/dL)

NC(N)=Nc1nc(CSCCC(N)=NS(N)(=O)=O)cs1 ... 5.5
COC1=CC(=O)C[C@@H](C)[C@]12Oc1c(Cl)c(OC)cc(OC)c1C2=O ... 5.4
CCOC(=O)CCC(=O)O[C@H]1[C@H](O[C@@H]2[C@@H](C)[C@H](O[C@H]3C[C@@](C)(OC)[C@@H](O)[C@H](C)O3)[C@@H](C)C(=O)O[C@H](CC)[C@@](C)(O)[C@H](O)[C@@H](C)C(=O)[C@H](C)C[C@@]2(C)O)O[C@H](C)C[C@@H]1N(C)C [ERYTHROMYCIN ETHYLSUCCINATE] ... 5.5
COc1ccc2[nH]c([S+]([O-])Cc3ncc(C)c(OC)c3C)nc2c1 (centres undefined) ... 5.4

---

Measured Mono values are reported for all entries that follow.
organism: Rattus norvegicus; assay: Open TG-GATES - Regimen: Single; type: toxicity, organism-based, Sprague-Dawley; set-up: regimen Single, gender Male, age 6 weeks; conditions: in vivo, po, 10 mg/kg, 6 h, tissue Blood, route gavage, dose level Low
test.readout: Mono (%)

CN(C)CCCN1c2ccccc2CCc2ccccc21 ... 2.2
CN(C)CCN(Cc1cccs1)c1ccccn1 ... 2.2
CN(C)CCCN1c2ccccc2CCc2ccc(Cl)cc21 ... 3
CC(C)OC(=O)C(C)(C)Oc1ccc(C(=O)c2ccc(Cl)cc2)cc1 [FENOFIBRATE] ... 2.6
CC1=C(/C=C/C(C)=C/C=C/C(C)=C/CO)C(C)(C)CCC1 ... 2.6

---

species: Rattus norvegicus; assay: Open TG-GATES - Regimen: Daily Repeat; type: toxicity, organism-based, Sprague-Dawley; design: regimen Daily Repeat, gender Male, age 6 weeks; conditions: in vivo, po, 300 mg/kg, […], tissue Blood, route gavage, dose level Middle, time 14 day
test.readout: Mono (%)

CCOc1ccc(NC(=O)CC(C)O)cc1 (stereo not given) ... 2.4
NC(N)=Nc1nc(CSCCC(N)=NS(N)(=O)=O)cs1 ... 2.8
CCOC(=O)CCC(=O)O[C@H]1[C@H](O[C@@H]2[C@@H](C)[C@H](O[C@H]3C[C@@](C)(OC)[C@@H](O)[C@H](C)O3)[C@@H](C)C(=O)O[C@H](CC)[C@@](C)(O)[C@H](O)[C@@H](C)C(=O)[C@H](C)C[C@@]2(C)O)O[C@H](C)C[C@@H]1N(C)C [ERYTHROMYCIN ETHYLSUCCINATE] ... 2.2
COc1ccc2[nH]c([S+]([O-])Cc3ncc(C)c(OC)c3C)nc2c1 (stereo not given) ... 2.8
COC1=CC(=O)C[C@@H](C)[C@]12Oc1c(Cl)c(OC)cc(OC)c1C2=O ... 2.8

---

species on record: Rattus norvegicus; experiment: Open TG-GATES - Regimen: Single; assay type: toxicity, organism-based, Sprague-Dawley; set-up: regimen Single, gender Male, age 6 weeks; conditions: in vivo, po, 100 mg/kg, 3 h, tissue Plasma, route gavage, dose level Low
test.readout: Na

COC1=CC(=O)C[C@@H](C)[C@]12Oc1c(Cl)c(OC)cc(OC)c1C2=O ... 141.6 meq/L
CCOC(=O)CCC(=O)O[C@H]1[C@H](O[C@@H]2[C@@H](C)[C@H](O[C@H]3C[C@@](C)(OC)[C@@H](O)[C@H](C)O3)[C@@H](C)C(=O)O[C@H](CC)[C@@](C)(O)[C@H](O)[C@@H](C)C(=O)[C@H](C)C[C@@]2(C)O)O[C@H](C)C[C@@H]1N(C)C [ERYTHROMYCIN ETHYLSUCCINATE] ... 139.2 meq/L
NC(N)=Nc1nc(CSCCC(N)=NS(N)(=O)=O)cs1 ... 141 meq/L
COc1ccc2[nH]c([S+]([O-])Cc3ncc(C)c(OC)c3C)nc2c1 (centres undefined) ... 140.2 meq/L

---

species on record: Rattus norvegicus; experiment: Open TG-GATES - Regimen: Daily Repeat; assay type: toxicity, organism-based, Sprague-Dawley; design: regimen Daily Repeat, gender Male, age 6 weeks; conditions: in vivo, po, 0 mg/kg, […], tissue Plasma, route gavage, dose level Control, time 28 day
test.readout: ALT (IU/L)

NC(N)=Nc1nc(CSCCC(N)=NS(N)(=O)=O)cs1 ... 32.4
NNC(=O)c1ccncc1 ... 26.8
O=C(CCCN1CCC(O)(c2ccc(Cl)cc2)CC1)c1ccc(F)cc1 ... 30.4

---

species: Rattus norvegicus; test: Open TG-GATES - Regimen: Daily Repeat; type: toxicity, organism-based, Sprague-Dawley; design: regimen Daily Repeat, gender Male, age 6 weeks; details: in vivo, po, 300 mg/kg, […], tissue Plasma, route gavage, dose level Middle, time 28 day
Measured CRE values are reported for all entries that follow.
test.readout: CRE

CCOc1ccc(NC(=O)CC(C)O)cc1 (stereo not given) [BUCETIN] ... 0.3 mg/dL
CCOC(=O)CCC(=O)O[C@H]1[C@H](O[C@@H]2[C@@H](C)[C@H](O[C@H]3C[C@@](C)(OC)[C@@H](O)[C@H](C)O3)[C@@H](C)C(=O)O[C@H](CC)[C@@](C)(O)[C@H](O)[C@@H](C)C(=O)[C@H](C)C[C@@]2(C)O)O[C@H](C)C[C@@H]1N(C)C [ERYTHROMYCIN ETHYLSUCCINATE] ... 0.2 mg/dL
NC(N)=Nc1nc(CSCCC(N)=NS(N)(=O)=O)cs1 [FAMOTIDINE] ... 0.5 mg/dL
COc1ccc2[nH]c([S+]([O-])Cc3ncc(C)c(OC)c3C)nc2c1 (stereo not given) [OMEPRAZOLE] ... 0.5 mg/dL
COC1=CC(=O)C[C@@H](C)[C@]12Oc1c(Cl)c(OC)cc(OC)c1C2=O [GRISEOFULVIN] ... 0.5 mg/dL

---

species: Rattus norvegicus; assay: Open TG-GATES - Regimen: Daily Repeat; type: toxicity, organism-based, Sprague-Dawley; set-up: regimen Daily Repeat, gender Male, age 6 weeks; conditions: in vivo, po, 0 mg/kg, […], tissue Plasma, route gavage, dose level Control, time 7 day
test.readout: TP (g/dL)

CN(C)CCN(Cc1cccs1)c1ccccn1 ... 5.6
CC1=C(/C=C/C(C)=C/C=C/C(C)=C/CO)C(C)(C)CCC1 [RETINOL] ... 5.6
COC1=CC(=O)C[C@@H](C)[C@]12Oc1c(Cl)c(OC)cc(OC)c1C2=O [GRISEOFULVIN] ... 5.8
CC(C)OC(=O)C(C)(C)Oc1ccc(C(=O)c2ccc(Cl)cc2)cc1 [FENOFIBRATE] ... 5.8
CCOC(=O)CCC(=O)O[C@H]1[C@H](O[C@@H]2[C@@H](C)[C@H](O[C@H]3C[C@@](C)(OC)[C@@H](O)[C@H](C)O3)[C@@H](C)C(=O)O[C@H](CC)[C@@](C)(O)[C@H](O)[C@@H](C)C(=O)[C@H](C)C[C@@]2(C)O)O[C@H](C)C[C@@H]1N(C)C [ERYTHROMYCIN ETHYLSUCCINATE] ... 5.6
NC(N)=Nc1nc(CSCCC(N)=NS(N)(=O)=O)cs1 [FAMOTIDINE] ... 5.7
CN1C(=O)CN=C(c2ccccc2)c2cc(Cl)ccc21 [DIAZEPAM] ... 6.4
